Reported minimum inhibitory concentration values follow for various compounds
Tested on: Staphylococcus aureus ATCC 29213 (MSSA)
assayOverview: minimum inhibitory concentration; extreme values may be limits of the assay

| compound | minimum inhibitory concentration |
| --- | --- |
| CC(C)n1nc(-c2cc3c(Cl)cccc3[nH]2)c2c(N)ncnc21 | > 50 µM |
| Cc1ccc(NC(=O)c2cc(S(=O)(=O)NC(C)(C)C)ccc2C)nc1 | > 50 µM |
| O[C@@H](c1cc(C(F)(F)F)nc2c(C(F)(F)F)cccc12)[C@H]1CCCCN1 | 50 µM |
| C[C@H](c1ccc2c(c1)CCCC2)N(C)c1ncc2c(N)nc(N)nc2n1 | 50 µM |
| CCCn1nnc(NC(=O)COc2ccc(C3CCCCC3)cc2)n1 | > 50 µM |
| COc1cc(C2=NCCN2)ccc1-c1cn(-c2cccc(C3=NCCN3)c2)nn1 | > 50 µM |
| O=C1[C@@H](Oc2ccccc2)[C@@H](c2ccc(Cl)cc2)N1CCn1cnc2c(NCc3ccccc3)ncnc21 | > 50 µM |
| COc1ccc(OC(C)C(=O)Nc2ccc(Cl)cc2C)cc1 (stereo not drawn) | > 50 µM |
| Nc1nccc2ccc(Oc3ccncc3)cc12 | 50 µM |
| Cc1ccccc1CN1CCC(O)(c2ccc(Cl)c(C(F)(F)F)c2)CC1 | > 50 µM |
| Clc1cccc(CO[C@H]2CCc3ccccc3[C@@H]2n2ccnn2)c1 | > 50 µM |
| CCC(=O)Nc1ccccc1C(=O)Nc1ccccn1 | > 50 µM |
| CCOc1ccc2cc(-c3nn(CC4CCN(C)CC4)c4ncnc(N)c34)ccc2c1 | > 50 µM |

All values here come from the supplement of paper PMC6206229.
